Target: KRas G12D mutant (Homo sapiens, UniProt P01116, G12D)
Construct: fused on or other part: His tag, used for capture on nickel-coated plates
Assay: Ras GTP binding domain inhibition assay (Cy3-GTP/Cy5-GTP competition)
Details: at 20 μM, without SOS; read-out: KRas G12D mutant: % inh.
QUANTITY: inhibition at 20 µM

Challenge: Given COCCNc1nc(-c2cn(C)cn2)nc2sc(-c3cccc(OC)c3Cl)c(-c3ccc(OC)cc3)c12 [drawing 932] , report its inhibition at 20 µM on KRas G12D mutant (Homo sapiens, UniProt P01116, G12D).
Response given: 26 to 50%

Challenge: Recall the reported inhibition at 20 µM of COCCCN(C)c1nc(-c2nccn2C)nc2sc(-c3ccn(C)n3)c(-c3ccccc3)c12 [drawing 1000] when tested on KRas G12D mutant (Homo sapiens, UniProt P01116, G12D).
Response given: 51 to 75%

Challenge: Look up and report measured inhibition at 20 µM (KRas G12D mutant (Homo sapiens, UniProt P01116, G12D)) for the following compound: COCCc1ccc(Oc2nc(-c3ccccn3)nc(O)c2OC)cc1 [drawing 949]
Response given: 51 to 75%

Challenge: Look up KRas G12D mutant (Homo sapiens, UniProt P01116, G12D) data: inhibition at 20 µM of COc1c(F)cccc1-c1sc2nc(-c3nccn3C)nc(N[C@@H]3CC[C@H](OC)C3)c2c1-c1ccccc1 [drawing 1022] , then report it.
Response given: 76 to 100%

Challenge: # assay system KRas G12D mutant (Homo sapiens, UniProt P01116, G12D): give inhibition at 20 µM of COCCNc1nc(-c2cn(C)cn2)nc2sc(-c3ccccc3Cl)c(-c3ccc(OC)cc3)c12 [drawing 1008]
Response given: 26 to 50%

Challenge: Provide inhibition at 20 µM, system KRas G12D mutant (Homo sapiens, UniProt P01116, G12D), entry COc1cccc(-c2sc3nc(-c4nccn4C)nc(N4CCC(OC)C4)c3c2-c2cscn2)c1 (centres unmarked) [drawing 1002]
Response given: 1 to 25%

Challenge: Provide inhibition at 20 µM, recorded with KRas G12D mutant (Homo sapiens, UniProt P01116, G12D), of O=C(c1nc(-c2ccccn2)nc(O)c1O)N1CCc2ccccc2C1 [drawing 967]
Response given: 51 to 75%

Challenge: Give inhibition at 20 µM for COC1CCN(c2nc(-c3nccn3C)nc3sc(-c4cnn(C)c4)c(-c4ccccc4)c23)C1 (centres unmarked) [drawing 970] tested on KRas G12D mutant (Homo sapiens, UniProt P01116, G12D).
Response given: 26 to 50%

Challenge: Provide KRas G12D mutant (Homo sapiens, UniProt P01116, G12D) inhibition at 20 µM reading for COCCNc1nc(-c2nccn2C)nc2sc(-c3cccc(OC)c3Cl)c(-c3ccc(OC)cc3)c12 [drawing 1009] .
Response given: 1 to 25%

Challenge: Please report the measured inhibition at 20 µM for CCn1cc(Nc2nc(-c3ccccn3)nc(O)c2OC)cn1 [drawing 1016] tested on KRas G12D mutant (Homo sapiens, UniProt P01116, G12D).
Response given: 26 to 50%

Challenge: Tell me inhibition at 20 µM of CO[C@H]1C[C@@H](Nc2nc(-c3nccn3C)nc3sc(-c4cnn(C)c4)c(-c4ccccc4)c23)C1 [drawing 1027] when tested on KRas G12D mutant (Homo sapiens, UniProt P01116, G12D).
Response given: 51 to 75%

Challenge: Provide inhibition at 20 µM, recorded with KRas G12D mutant (Homo sapiens, UniProt P01116, G12D), of Cc1cc(Cn2ccnc2-c2nc(O)c3scc(-c4ccccn4)c3n2)on1 [drawing 981]
Response given: 51 to 75%

Challenge: Provide inhibition at 20 µM, tested on KRas G12D mutant (Homo sapiens, UniProt P01116, G12D), for COc1cccc(-c2sc3nc(-c4nccn4C)nc(NC4CCC(OC)C4)c3c2C)c1F (centres unmarked) [drawing 1028] .
Response given: 76 to 100%

Challenge: Supply inhibition at 20 µM measured with KRas G12D mutant (Homo sapiens, UniProt P01116, G12D) for O=C(NC1CCC1)c1nc(-c2ccccn2)nc(O)c1O [drawing 944] .
Response given: 51 to 75%

Challenge: Please report inhibition at 20 µM with KRas G12D mutant (Homo sapiens, UniProt P01116, G12D) for item COc1nscc1-c1sc2nc(-c3nccn3C)nc(N3CCC(OC)C3)c2c1-c1ccccc1 (centres unmarked) [drawing 975] .
Response given: 26 to 50%

Challenge: Look up and report measured inhibition at 20 µM (KRas G12D mutant (Homo sapiens, UniProt P01116, G12D)) for the following compound: Oc1nc(-c2cn3cccnc3n2)nc2c(-c3ccccn3)csc12 [drawing 983]
Response given: 1 to 25%

Challenge: Quote KRas G12D mutant (Homo sapiens, UniProt P01116, G12D) inhibition at 20 µM for entry Cn1ccnc1-c1nc(O)c(O)c(C(=O)N2CCCC2)n1 [drawing 963] .
Response given: 26 to 50%
